A set of compounds tested on human V1a receptors (Homo sapiens), with measured pIC50:
pIC50: −log10 of the molar value.

Compound: CCN(CC)C(=O)Nc1ccc(S(=O)(=O)N2C(=O)C(NCCC3CCNCC3)(c3ccccc3Cl)c3cc(Cl)c(Cl)cc32)cc1 (centres unmarked)
Subject Of Test: human V1a receptors (Homo sapiens)
Sequence (P37288 whole entry): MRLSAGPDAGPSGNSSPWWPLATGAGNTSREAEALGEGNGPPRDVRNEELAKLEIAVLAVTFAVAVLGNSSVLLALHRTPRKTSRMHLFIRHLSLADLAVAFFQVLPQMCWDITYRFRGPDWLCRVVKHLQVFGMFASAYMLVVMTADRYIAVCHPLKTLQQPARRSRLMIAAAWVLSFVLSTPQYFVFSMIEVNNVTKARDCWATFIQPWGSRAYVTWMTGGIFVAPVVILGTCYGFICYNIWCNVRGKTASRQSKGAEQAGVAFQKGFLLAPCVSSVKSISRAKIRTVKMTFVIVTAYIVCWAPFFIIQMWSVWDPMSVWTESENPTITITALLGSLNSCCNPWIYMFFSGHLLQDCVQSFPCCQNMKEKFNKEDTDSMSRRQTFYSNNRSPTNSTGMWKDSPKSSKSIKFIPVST
pIC50: 7.64

Compound: COc1ccc2c(n1)C(CCCN1CCN(C)CC1)(c1ccccc1F)C(=O)N2S(=O)(=O)c1ccc(OC(C)C)cc1 (centres unmarked)
Subject Of Test: human V1a receptors (Homo sapiens)
pIC50: 8.15

Compound: COc1ccc2c(n1)C(CCCN1CCNCC1)(c1ccccc1F)C(=O)N2S(=O)(=O)c1ccc(OC(C)C)cc1 (centres unmarked)
Subject Of Test: human V1a receptors (Homo sapiens)
pIC50: 9.09

Compound: CCN(CC)C(=O)Nc1ccc(S(=O)(=O)N2C(=O)C(NCCC3CCNCC3)(c3ccccc3Cl)c3cc(Cl)c(C)cc32)cc1 (centres unmarked)
Subject Of Test: human V1a receptors (Homo sapiens)
pIC50: 7.74

Compound: COc1ccc2c(n1)C(CCCN1CCNCC1)(c1ccccc1F)C(=O)N2S(=O)(=O)c1cccc(Cl)c1 (centres unmarked)
Subject Of Test: human V1a receptors (Homo sapiens)
pIC50: 8.05
